MEASUREMENT_PROTOCOL: Example 2: ocular tissue pharmacokinetics after topical dose, decreasing dose volume at same total amount of drug
Type: in vivo, New Zealand Composite pigmented rabbits
ASSAY_SETUP: New Zealand Composite pigmented, rabbit, cornea, topical or ocular, 10 ug; 10 μL/eye of 1 mg/mL (10 μg), topical ocular
ASSAY_ENDPOINT: Tmax (min)
# output: bare number, implied unit min

// lookup Tmax for Cc1ccc2c(NCC(O)(CC(C)(C)c3cc(F)cc4c3OCC4)C(F)(F)F)cccc2n1 (stereo not shown)
30

---

MEASUREMENT_PROTOCOL: Example 2: ocular tissue pharmacokinetics after topical dose, decreasing dose volume at same total amount of drug
Format: in vivo, New Zealand Composite pigmented rabbits
ASSAY_SETUP: New Zealand Composite pigmented, rabbit, tears, topical or ocular, 10 ug; 30 μL/eye of 0.33 mg/mL (10 μg), topical ocular
ASSAY_ENDPOINT: Cmax (ng/g)
# output: bare number, implied unit ng/g

// lookup Cmax for Cc1ccc2c(NCC(O)(CC(C)(C)c3cc(F)cc4c3OCC4)C(F)(F)F)cccc2n1 (stereo not shown)
32000
